Catalogue of pIC50 readings, one per entry.
Biological target: PfFNT (Plasmodium falciparum)
Construct: expressed in transfected cells; membranes solubilized
Sequence (O77389 whole entry): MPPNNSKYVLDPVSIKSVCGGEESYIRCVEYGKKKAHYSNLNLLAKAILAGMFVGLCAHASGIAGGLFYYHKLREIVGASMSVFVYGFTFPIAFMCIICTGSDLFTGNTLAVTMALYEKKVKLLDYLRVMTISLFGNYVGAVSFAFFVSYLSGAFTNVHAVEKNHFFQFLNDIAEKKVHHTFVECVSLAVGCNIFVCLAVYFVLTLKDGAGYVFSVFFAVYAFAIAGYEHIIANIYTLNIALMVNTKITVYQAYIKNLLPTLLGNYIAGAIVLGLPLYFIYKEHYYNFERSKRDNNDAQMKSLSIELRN
Experiment: Yeast-based PfFNT 14C-lactate transport assay
Assay type: cell-based
Settings: 14C-lactate transport, PfFNT wild type; read-out: IC50 (transport, yeast)
pIC50: −log10 of the molar value.
readout name: pIC50

INSERT INTO results (cpd_smiles, study_target, observed_result) VALUES
  ('FC(F)(F)C(F)(F)c1nc(-c2cccnc2)n[nH]1', 'PfFNT (Plasmodium falciparum)', 5.07),
  ('O=C(/C=C(\O)C(F)(F)C(F)(F)F)c1ccc(NC(=O)c2ccccc2)nc1', 'PfFNT (Plasmodium falciparum)', 6.43),
  ('CC(C)Nc1ccc(C(=O)/C=C(\O)C(F)(F)C(F)(F)F)cn1', 'PfFNT (Plasmodium falciparum)', 6.82),
  ('O=C(/C=C(\O)C(F)(F)C(F)(F)F)c1ccc(N2CCNCC2)nc1', 'PfFNT (Plasmodium falciparum)', 4.76),
  ('CNc1ccc(C(=O)/C=C(\O)C(F)(F)C(F)(F)F)cn1', 'PfFNT (Plasmodium falciparum)', 6.89),
  ('O=C(/C=C(\O)C(F)(F)C(F)(F)F)c1ccco1', 'PfFNT (Plasmodium falciparum)', 6.77),
  ('O=C(/C=C(\O)C(F)(F)C(F)(F)F)c1ccoc1', 'PfFNT (Plasmodium falciparum)', 7.00),
  ('CCN(CC)c1ccc(C(=O)/C=C(\O)C(F)(F)C(F)(F)F)cn1', 'PfFNT (Plasmodium falciparum)', 6.42),
  ('CC(C)CNc1ccc(C(=O)/C=C(\O)C(F)(F)C(F)(F)F)cn1', 'PfFNT (Plasmodium falciparum)', 6.55),
  ('CCCCCNc1ccc(C(=O)/C=C(\O)C(F)(F)C(F)(F)F)cn1', 'PfFNT (Plasmodium falciparum)', 6.41),
  ('CC(C)(C)Nc1ccc(C(=O)/C=C(\O)C(F)(F)C(F)(F)F)cn1', 'PfFNT (Plasmodium falciparum)', 6.43),
  ('CCCCNc1ccc(C(=O)/C=C(\O)C(F)(F)C(F)(F)F)cn1', 'PfFNT (Plasmodium falciparum)', 6.48),
  ('CCNc1ccc(C(=O)/C=C(\O)C(F)(F)C(F)(F)F)cn1', 'PfFNT (Plasmodium falciparum)', 6.92),
  ('O=C(/C=C(\O)C(F)(F)C(F)(F)F)c1ccc(NC2CCC2)nc1', 'PfFNT (Plasmodium falciparum)', 6.59),
  ('O=C(/C=C(\O)C(F)(F)C(F)(F)Cl)c1cccnc1', 'PfFNT (Plasmodium falciparum)', 6.74),
  ('CCC(=O)Nc1ccc(C(=O)/C=C(\O)C(F)(F)C(F)(F)F)cn1', 'PfFNT (Plasmodium falciparum)', 6.60),
  ('CCCN(C)c1ccc(C(=O)/C=C(\O)C(F)(F)C(F)(F)F)cn1', 'PfFNT (Plasmodium falciparum)', 6.46),
  ('O=C(/C=C(\O)C(F)(F)C(F)(F)F)c1ccc(NCc2ccccc2)nc1', 'PfFNT (Plasmodium falciparum)', 6.29),
  ('COCCCNc1ccc(C(=O)/C=C(\O)C(F)(F)C(F)(F)F)cn1', 'PfFNT (Plasmodium falciparum)', 6.80),
  ('O=C(/C=C(\O)C(F)(F)C(F)(F)F)c1ccc(NCc2ccc(F)cc2)nc1', 'PfFNT (Plasmodium falciparum)', 6.41);
